system: HLA-A*01:01
assay-notes: IEDB peptide-MHC binding, purified MHC/direct/fluorescence; filed as Kd, often an IC50 or EC50 that approximates it; bounds were set here for any values at or beyond the usual limits of such assays
assay-conditions: source organism: Influenza A virus (A/swine/Hong Kong/273/1994(H1N1))
experimental-readout: Kd

INSERT INTO results (sequence_text, system, experimental_readout, recorded_value) VALUES
  ('GMFNMLSTV', 'HLA-A*01:01', 'Kd', '≥ 20 µM');

----------
system: HLA-A*02:03
assay-notes: IEDB peptide-MHC binding, purified MHC/direct/fluorescence; filed as Kd, often an IC50 or EC50 that approximates it; bounds were set here for any values at or beyond the usual limits of such assays
assay-conditions: source organism: Influenza A virus(A/swine/Shandong/fNY/2003(H9N2))
pKd: −log10 of the molar value.
experimental-readout: pKd

INSERT INTO results (sequence_text, recorded_value) VALUES
  ('VSPLAVTWW', 7.54);

Values from the Immune Epitope Database (IEDB)
